SUBJECT OF TEST: T1, extracellular domain of human BCMA (human, UniProt Q02223 1-54)
T1 construct: amine-linked to Octet AR2G tips; also called hsBCMA; BCMA (human)
T1 sequence: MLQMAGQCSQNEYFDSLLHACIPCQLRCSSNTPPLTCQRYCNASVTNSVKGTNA
EXPERIMENT NOTES: Octet BLI; Fab 200 nM
Entries and their measured pKd follow.
# pKd = -log10(concentration in molar units)

[Q] Supply pKd value. Item: AB200-R1a-Fab_VH27 (Fab, V domains shown) VH: QVQLVQSGAEVKKPGSSVKVSCKATGGTFSNYWMHWVRQAPGQGLEWMGAIYRGHSDTYYNQKFRGRVTITADKSTSTAYMELSSLRSEDTAVYYCARGAIYHGYDVLDNWGQGTLVTVSS VL: DIQMTQSPSSLSASVGDRVTITCSATQDISNYLNWYQQKPGKAPKLLIYFTSNLQSGVPSRFSGSGSGTDFTLTISSLQPEDFATYYCQQYRKLPWTFGQGTKLEIKR
[A] 8.42

[Q] Quickly give me recorded pKd for AB200-R1a-Fab_VH57 (Fab, V domains shown) VH: QVQLVQSGAEVKKPGSSVKVSCKASGGTYSNYYMHWVRQAPGQGLEWMGATYRGHSETYYNQKFKGRVTITADKSTSTAYMELSSLRSEDTAVYYCARGAIYHGYDVLDNWGQGTLVTVSS VL: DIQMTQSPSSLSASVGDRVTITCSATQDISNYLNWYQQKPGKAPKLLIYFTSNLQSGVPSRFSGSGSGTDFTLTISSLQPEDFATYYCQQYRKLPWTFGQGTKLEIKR
[A] 7.96

[Q] Supply recorded pKd for AB200-R1a-Fab_VH4 (Fab, V domains shown) VH: QVQLVQSGAEVKKPGSSVKVSCKATGGTFSNYWMHWVRQAPGQGLEWMGATYRGHSNTYYDQKFKGRVTITADKSTSTAYMELSSLRSEDTAVYYCARGAIYHGYDVLDNWGQGTLVTVSS VL: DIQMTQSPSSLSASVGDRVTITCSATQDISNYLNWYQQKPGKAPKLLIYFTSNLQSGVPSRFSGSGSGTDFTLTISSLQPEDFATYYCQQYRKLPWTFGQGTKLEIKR here.
[A] 8.26

[Q] Supply recorded pKd for AB200-R1a-Fab_VH17 (Fab, V domains shown) VH: QVQLVQSGAEVKKPGSSVKVSCKASGGTFSSYWMHWVRQAPGQGLEWMGATYRGHSDTYYAQKFKGRVTITADKSTSTAYMELSSLRSEDTAVYYCARGAIYHGYEVLDNWGQGTLVTVSS VL: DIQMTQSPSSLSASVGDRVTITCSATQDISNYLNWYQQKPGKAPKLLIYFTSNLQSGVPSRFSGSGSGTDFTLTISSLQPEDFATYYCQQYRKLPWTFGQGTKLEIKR here.
[A] 7.08

[Q] # return recorded pKd for input AB200-R1a-Fab_VH41 (Fab, V domains shown) VH: QVQLVQSGAEVKKPGSSVKVSCKASGGTFSNYWMHWVRQAPGQGLEWMGATYRGHSDTYYNEKFKGRVTITADKSTSTAYMELSSLRSEDTAVYYCARGAIYHGYDILNNWGQGTLVTVSS VL: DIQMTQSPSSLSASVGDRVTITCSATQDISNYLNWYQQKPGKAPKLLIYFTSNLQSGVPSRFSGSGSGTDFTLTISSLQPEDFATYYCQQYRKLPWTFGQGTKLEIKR
[A] 7.84
